Target: human PD-1 (human, UniProt Q15116)
Assay: flow cytometry, CHO/PD-1 cells, 100 nM, anti-Flag
READOUT NAME: MFI
Answers are plain numbers.

{"BINDER": "CD80 2617-PD-L2 1417 (other) VIHVTKEVKEVATLSCGHNVSVEELAQTRIYWQKGKKMVLTMMSGDMNIWPEYENRTIFDITNNLSIVILDPRPSDEGTYECVVLKYEKDAFKREHLAEVGSGGSGGGGSGGGGSLFTVTVPKELYIIEQGSNVTLECNFDTGSHVNLGAITASLQKVENDASPHRERATLLEEQLPLGRALFHIPQVQVRDEGQYRCIIIYGDAWDYKYLTLKVKADYKDDDDKHHHHHH", "READOUT NAME": "MFI", "REPORTED RESULT": 1390}
{"BINDER": "CD80 2616-PD-L2 1417 (other) VIHVTKEVKEVATLSCGHNVSLEELAQTRIYWQKGKKMVLTMMSGDMNIWPEYKNRTIFDITNNLSIVILDPRPSDEGTYECVVLKYEKDAFKREHLAEVGSGGSGGGGSGGGGSLFTVTVPKELYIIEQGSNVTLECNFDTGSHVNLGAITASLQKVENDASPHRERATLLEEQLPLGRALFHIPQVQVRDEGQYRCIIIYGDAWDYKYLTLKVKADYKDDDDKHHHHHH", "READOUT NAME": "MFI", "REPORTED RESULT": 1520}
{"BINDER": "PD-L2 1417-CD80 2617 (other) LFTVTVPKELYIIEQGSNVTLECNFDTGSHVNLGAITASLQKVENDASPHRERATLLEEQLPLGRALFHIPQVQVRDEGQYRCIIIYGDAWDYKYLTLKVKAGSGGSGGGGSGGGGSVIHVTKEVKEVATLSCGHNVSVEELAQTRIYWQKGKKMVLTMMSGDMNIWPEYENRTIFDITNNLSIVILDPRPSDEGTYECVVLKYEKDAFKREHLAEVDYKDDDDKHHHHHH", "READOUT NAME": "MFI", "REPORTED RESULT": 13700}

Next up:
The value of MFI measured for the binder PD-L2 1417-CD80 2616 (other) LFTVTVPKELYIIEQGSNVTLECNFDTGSHVNLGAITASLQKVENDASPHRERATLLEEQLPLGRALFHIPQVQVRDEGQYRCIIIYGDAWDYKYLTLKVKAGSGGSGGGGSGGGGSVIHVTKEVKEVATLSCGHNVSLEELAQTRIYWQKGKKMVLTMMSGDMNIWPEYKNRTIFDITNNLSIVILDPRPSDEGTYECVVLKYEKDAFKREHLAEVDYKDDDDKHHHHHH turned out to be 20000
